Value source: ChEMBL document CHEMBL1136676

- ASSAY OVERVIEW: Inhibition of protein phosphatase (PP2A) at 100 uM

COMPOUND: C=C([C@@H](O)C[C@H](O)[C@@]1(C)CC[C@H](C(C)(C)O)O1)[C@H]1CC[C@H]2O[C@@H]([C@]3(C)CC[C@@H](Br)C(C)(C)O3)CC[C@]2(C)O1
inhibition (%): 100

COMPOUND: C=C([C@H](O)C[C@H](O)[C@@]1(C)CC[C@H](C(C)(C)O)O1)[C@H]1CC[C@H]2O[C@@H]([C@]3(C)CC[C@@H](Br)C(C)(C)O3)CC[C@]2(C)O1
inhibition (%): 65.1

COMPOUND: CC(C)(O)[C@H]1CC[C@](C)([C@@H](O)CC[C@@](O)(CO)C2=CC[C@H]3O[C@@H]([C@]4(C)CC[C@@H](Br)C(C)(C)O4)CC[C@]3(C)O2)O1
inhibition (%): 89.6

COMPOUND: C/C(=C\C[C@H](O)[C@@]1(C)CC[C@H](C(C)(C)O)O1)[C@H]1CC[C@H]2O[C@@H]([C@]3(C)CC[C@@H](Br)C(C)(C)O3)CC[C@@]2(C)O1
inhibition (%): 99.5

COMPOUND: C=C(CC[C@H](O)[C@@]1(C)CC[C@H](C(C)(C)O)O1)[C@H]1CC[C@H]2O[C@@H]([C@]3(C)CC[C@@H](C(C)(C)OC)O3)CC[C@]2(C)O1
inhibition (%): 65.1

COMPOUND: CC(CCC[C@H]1O[C@@H]([C@]2(C)CC[C@@H](Br)C(C)(C)O2)CC[C@]1(C)O)CC[C@H](O)[C@@]1(C)CC[C@H](C(C)(C)O)O1 (stereo partly specified)
inhibition (%): 57.8
